Tested on: HOP-62
Experiment: NCI tumour cell line growth inhibition, 48 h
Calls of active or inactive are those of the source. Rule as the data show it: active = GI50 up to about 1.1 µM and inactive = higher.
Outcomes: true (1) (active), false (0) (inactive)

{"columns": ["compound", "classification"],
 "data": [
  ["CC1CC(C2=CC=CCS2)=Nc2ccccc2S1 (stereo unspecified)", "false (0)"],
  ["CC(=O)O[C@H]1CCC2[C@@H]3CCC4Nc5[nH]ncc5C[C@]4(C)C3CC[C@@]21C (stereo partly specified)", "false (0)"],
  ["CN1Cc2cc3cc4c(cc3nc2N(C)C1)OCCO4", "false (0)"],
  ["N#CC(C#N)=C1NC(=O)C(c2ccccc2)C(=O)N1 (stereo unspecified)", "false (0)"],
  ["CCOC(=O)c1cc2c([nH]1)c(OC(C)=O)cc1c2ccn1Cc1ccccc1", "false (0)"],
  ["CC1=C2C(=O)c3ccccc3C(=O)[C@H]2C[C@@H](N2CCCCCC2=O)O1", "false (0)"],
  ["COC(=O)C(CCC1C=CN(S(=O)(=O)c2ccc(C)cc2)C1)/N=C/c1ccccc1 (stereo unspecified)", "false (0)"],
  ["CCCC(=O)N[C@H]1C2C3CC4C5CC(C42)C1(C)C53 (stereo partly specified)", "false (0)"],
  ["COC(=O)CC1(O)C=CC(=O)C=C1", "false (0)"],
  ["CCCCCCC(N)(CCCCCC)C(=O)Nn1c(C)ccc1C", "false (0)"],
  ["NCCCN1CCN(CCCNc2ccc3nnn4c5ccccc5c(=O)c2c34)CC1", "false (0)"],
  ["CC1=CC(=O)N(n2c(-c3ccccc3)n[nH]c2=O)C1=O", "false (0)"],
  ["Cc1c2ccncc2c(C)c2c1sc1ccccc12", "false (0)"],
  ["COC1OC2COC(c3ccccc3)OC2C(OC(=S)c2ccccc2)C1O (stereo unspecified)", "false (0)"],
  ["Cc1nc2ccccc2c(=O)n1NC(=O)c1ccccc1O", "false (0)"],
  ["CCOC(=O)/C=C(/C(=O)OCC)n1cnc2c(=O)[nH]c(NC(C)=O)nc21", "false (0)"],
  ["Cc1ccc(NC(=O)CCC/C(CC(=O)c2ccc(Br)cc2)=N/NC(=O)CC#N)cc1", "false (0)"],
  ["COc1cc2c(c3oc4c(O)cccc4c(=O)c13)CC(C(C)(O)CCl)O2 (stereo unspecified)", "true (1)"],
  ["CO[C@@H]1C[C@H](OC(N)=O)[C@@H]2C=C[C@@H]3/C=C(C)/C=C/[C@@H](C)[C@H]([C@H](C)[C@H](O)[C@@H](C)NC(C)=O)OC(=O)/C=C/C=C(C)\\C=C\\[C@]3(C)[C@@H]2C1", "true (1)"],
  ["CN(C)c1ccc(C=C2C(=O)N(c3ccccc3)N(c3ccccc3)C2=O)cc1", "false (0)"],
  ["COc1ccc(OC2OC(CO)C(O)C(O)C2O)cc1 (stereo unspecified)", "false (0)"]
]}

---

Tested on: PC-3
Assay: NCI tumour cell line growth inhibition, 48 h
Activity calls are given as the source filed them. Rule as the data show it: active = GI50 up to about 1.1 µM and inactive = higher.
Outcomes: TRUE = active, FALSE = inactive

{"columns": ["molecule", "classification"],
 "data": [
  ["CCN(CC)CC[n+]1ccc2c(C)c3[nH]c4ccc(O)cc4c3c(C)c2c1", "FALSE"],
  ["CCCC(=O)NC1=C(Cl)C(=O)c2ccccc2C1=O", "FALSE"],
  ["O=C1C(N2CCN(c3ccccn3)CC2)=C(Cl)C(=O)c2ncccc21", "FALSE"],
  ["CCCCCCCCCCCCCCCC[N+](C)(C)CCl", "FALSE"],
  ["Nc1c(C(=O)O)nnc2cc(Cl)c(Cl)cc12", "FALSE"],
  ["Nc1ccc2nc3n(c2c1)C(=O)c1ccccc1-3", "FALSE"],
  ["NCCCN1CCN(CCCNc2ccc3nnn4c5ccccc5c(=O)c2c34)CC1", "FALSE"],
  ["CC(=O)O[C@H]1C[C@H]2[C@@H]([C@H](OC(C)=O)C[C@@H]3CC4(CC[C@@]32C)OOC2(CCCCC2)OO4)[C@@H]2CC[C@H]([C@H](C)CCC(=O)O)[C@@]12C", "FALSE"],
  ["Cc1nc(Nc2nc3ccccc3[nH]2)nc(Cl)c1CCCl", "FALSE"],
  ["O=CC(O)C(O)C(O)C(O)C(=O)NCCCCCCCCCCCCNC(=O)C(O)C(O)C(O)C(O)C=O (stereo unspecified)", "FALSE"],
  ["Cc1ccc(S(=O)(=O)Nn2c(-c3ccccc3)c(C#N)c(-c3ccc(Cl)cc3)c(C#N)c2=O)cc1", "FALSE"],
  ["C=C1C(O)C2OC(=O)C(=C)C2C(OC(=O)/C(C)=C/C)CC2(C)OC2C2OC12 (stereo unspecified)", "FALSE"],
  ["O=C(OC[C@H]1C[C@H]2C(=O)CCC[C@H]2O1)c1ccccc1", "FALSE"],
  ["CC(=O)Oc1c2c(c3n(c1=O)CCCC3)C(=O)N(c1ccccc1)C2=O", "FALSE"],
  ["O=C(CNc1nccs1)Nn1cnc2ccc(S(=O)(=O)Nc3nccs3)cc2c1=O", "FALSE"],
  ["COC(=O)N/N=C(\\c1ccccc1)c1ccc(OC)cc1", "FALSE"],
  ["CCCCCCCCCCCCCCCCCCN(C)C(COC)COP(=O)([O-])OCC[N+](C)(C)C (stereo unspecified)", "FALSE"],
  ["CC12CC1C(c1cccc([N+](=O)[O-])c1)(c1cccc([N+](=O)[O-])c1)N=N2 (stereo unspecified)", "FALSE"],
  ["CC(C)=CC1CC(C)C2(CCC3(C)CC4C(C(=O)CC4(C)O)/C(C=O)=C\\CC32)O1 (stereo unspecified)", "TRUE"],
  ["COc1ccccc1NC(=O)CC(=O)n1nc(C)c(/N=N/c2ccccc2Cl)c1C", "FALSE"],
  ["c1ccc(C2=NC3OC2c2ccccc23)cc1 (stereo unspecified)", "FALSE"],
  ["Cc1cc2c(cc1Cl)SC(N/N=C(\\N)c1ccc(Cl)cc1)=NS2(=O)=O", "FALSE"],
  ["O=C1CCCC/C1=C(\\Br)I", "FALSE"],
  ["Cc1[nH]c(=O)c2oc3cc4ccccc4cc3c2c1C(=O)O", "FALSE"],
  ["COC(=O)C(CCC1C=CN(S(=O)(=O)c2ccc(C)cc2)C1)/N=C/c1ccccc1 (stereo unspecified)", "FALSE"],
  ["N#Cc1c(OCCF)c2ccccc2n2c1nc1ccccc12", "FALSE"],
  ["O=S(=O)(O)c1cc(O)c(/N=N/c2ccc(O)cc2O)c2ccccc12", "FALSE"],
  ["COc1ccc(C2SCC(=O)N2c2ccc(-c3ccc(-n4c(-c5ccccc5)nc5ccccc5c4=O)cc3)cc2)cc1 (stereo unspecified)", "FALSE"],
  ["OCCOCn1nncc1Cn1ncc2c(SCc3ccccc3)ncnc21", "FALSE"],
  ["O=C1/C(=C/c2cccnc2)SC(=S)N1Cc1ccco1", "FALSE"],
  ["COc1ccc(OC)c(/C=N/N=C2\\C(=O)Nc3c(Cl)cc(Cl)cc32)c1", "FALSE"],
  ["NC(Cc1ccccc1)C(=O)OCN1C(=O)C2C3C=CC(C2C1=O)C1C(=O)N(COC(=O)C(N)Cc2ccccc2)C(=O)C31 (stereo unspecified)", "FALSE"],
  ["C[n+]1c(-c2ccc(/C=N\\N3CCN(/N=C/c4ccc(-c5cn6ccsc6[n+]5C)cc4)CC3)cc2)cn2ccsc21", "FALSE"],
  ["CCCCCCCCCCCCCCCC(=O)OCC1CCCN2CCCCC12 (stereo unspecified)", "FALSE"],
  ["CC(=O)OC1CC2(C)C(OC(C)=O)CC1C2(C)C (stereo unspecified)", "FALSE"],
  ["Cn1cc2c3ccccc3nc-2c2ccccc21 [ISOCRYPTOLEPINE]", "FALSE"],
  ["O=C1O/C(=C\\c2ccc(O)c(Br)c2)C(c2ccc(O)cc2)=C1Cl", "FALSE"],
  ["Cc1cn(C2CC(COCc3ccccc3)N(CCO[Si](C)(C)C(C)(C)C)O2)c(=O)[nH]c1=O (stereo unspecified)", "FALSE"],
  ["C=C(C)C1CCC2(C)C1CCC1(C)C2CCC2C3(C)C4OC(OC4=O)C(C)(C)C3CCC21C (stereo unspecified)", "FALSE"],
  ["CSC1=NN=C(SC)NN1", "TRUE"],
  ["CCOC(=O)/C(C#N)=C1\\c2c([nH]c(=S)[nH]c2=O)Oc2ccc3ccccc3c21", "FALSE"]
]}
